Hey, just so you know, these numbers are from Sander's compilation of Henry's law constants (doi:10.1016/0045-6535(88)90028-8).

Reported values of Henry solubility constant Hcp for individual entries
assay: Henry solubility constant Hcp at 298.15 K (mol/(m3 Pa)); details: reference: Dunnivant and Elzerman (1988)
assay-endpoint: Henry solubility constant Hcp

Clc1ccc(Cl)c(-c2cc(Cl)ccc2Cl)c1 | 0.029
Clc1cccc(-c2cccc(Cl)c2)c1 | 0.042
Clc1cccc(Cl)c1-c1c(Cl)cccc1Cl | 0.018
Clc1ccc(-c2ccc(Cl)cc2)cc1 | 0.05
Clc1cc(Cl)c(-c2c(Cl)cc(Cl)cc2Cl)c(Cl)c1 | 0.013
Clc1ccc(-c2ccccc2)c(Cl)c1 | 0.028
Clc1ccc(-c2ccccc2)cc1Cl | 0.048
Clc1ccc(-c2ccc(Cl)c(Cl)c2)cc1Cl | 0.1
Clc1cc(Cl)c(-c2cc(Cl)c(Cl)cc2Cl)cc1Cl | 0.075
Clc1cc(Cl)c(-c2ccccc2)c(Cl)c1 | 0.015
Clc1cccc(-c2cccc(Cl)c2Cl)c1Cl | 0.049
Clc1ccc(Cl)c(-c2cc(Cl)c(Cl)cc2Cl)c1 | 0.039
Clc1cccc(-c2cc(Cl)ccc2Cl)c1 | 0.03
Clc1ccccc1-c1ccccc1Cl | 0.029
Clc1ccc(Cl)c(-c2ccccc2)c1 | 0.025
Clc1ccc(Cl)c(-c2ccccc2Cl)c1 | 0.026
